apparent KD of MS2 coat protein by entry:
- Tested on: MS2 coat protein
- experiment-description: apparent KD of MS2 coat protein; designed switch direction (-1 OFF switch, 1 ON switch): -1; higher = weaker reporter binding
- condition-description: input ligand: microRNA oligo, concentration not stated

# biosequence, display-unit, apparent KD of MS2 coat protein
data = [
    ("CUGCUCCGUGUAGGAUAUCCGCGCAACCAAUGCGGAGAAGGACAUGAGGAUCACCCAUGUAUGUUAUUAUCACGUGAAGCGUCC [Design 26] (Eterna round: R96, puzzle: Exclusion NG 1)", "nM", 13.7),
    ("ACAUGCCGCGCAGGAUAUGGGACACAUGAGGAUCACCCAUGUGGUUUCAUGUCUAACCAAGCGUCCCAGAAGGGCGUGAACAUG [Ex NG2 #29] (Eterna round: R96, puzzle: Exclusion NG 2)", "nM", 16.1),
    ("ACUGUUUGAUACCUCUUAUACAUGAGGAUCACCCAUGUUAUCGAGGAUAUGCAUUAGAGUGGUUAGCAGAAGGCGAUGUAAUUG [JR_ExcNG3_Sub032] (Eterna round: R96, puzzle: Exclusion NG 3)", "nM", 12.1),
    ("AAUUAUUUUUGAGGAUAUUGUGGUGAAACACCACAAGAAGGCAAGAUACACAUGAGGAUCACCCAUGUGAGCCUGAUGCUUAUG [Ex NG1 #53] (Eterna round: R96, puzzle: Exclusion NG 1)", "nM", 13.1),
    ("ACAUGAGGAUCACCCAUGUGAAAAGAAUGGCUGACACAGAGAUAGGAUAUGCGUGCAUAUCUAACGCAGAAGGGUCAUGACUGG [Deportation 81 - Jieux - Exclusion NG 3] (Eterna round: R96, puzzle: Exclusion NG 3)", "nM", 22.4),
    ("ACAAGCAUUUAUAUUUUAAAAUUUUAUCGUCUUAUAAUUACAUGAGGAUCACCCAUGUAUAAAGGGUGAAUAAUAAU [JR_Sensorv2_tov2_Sub550] (Eterna round: R96, puzzle: Sensor v2, turn-off variant 2)", "nM", 203),
    ("AUCGUGCAGCUUUGCUGUACGAGUACAUGAGGAUCACCCAUGUAGGAUAUGGUACGCUUUGCGUGCUAGAAGGAUAUGAGUAGG [EX ENG3 1.42] (Eterna round: R96, puzzle: Exclusion NG 3)", "nM", 43),
    ("AGCGAAUAGCUAGGAUAUGAGAAUAGAUAGAGCUCAGAAGGAGCACAUGAGGAUCACCCAUGUGAAGUCUUGAGGCUGCGUGGU [Prohibition 17 - Jieux - Exclusion NG 1] (Eterna round: R96, puzzle: Exclusion NG 1)", "nM", 14.7),
    ("CUAGCGAAUGUAGGAUAUCGGACUGUUUCAGUCUGAGAAGGACAUGAGGAUCACCCAUGUAUUGCUACGUGAGUAGCUCGCUAG [JL ENG1 3.92] (Eterna round: R96, puzzle: Exclusion NG 1)", "nM", 13.7),
    ("UUUAUAAUAAGAUCAAUUAAUUAACAUGAGGAUCACCCAUGUGAGGAUAUCAGCUCGUUUAGAGCUGAGAAGGCACAAUAUAAG [ExNG3/17-B2] (Eterna round: R96, puzzle: Exclusion NG 3)", "nM", 42.1),
    ("AACAGUACAGGAUAUACAUGAGGAUCACCCAUGUGAGAAUUAAGUGGAAAACCACAAAGUAGAAGGGUACUGGA [Mat - Exclusion 3 - JL mod - D3] (Eterna round: R96, puzzle: Exclusion 3)", "nM", 23.3),
    ("AGUACUAACACGAAAGUGUUAGUACAAUAAGCUUGUGAAACAUGAGGAUCACCCAUGUCCUCAUAAGCUCGUCUUAU [Mat - Sensor v2 -ver2- JL mod - D68] (Eterna round: R96, puzzle: Sensor v2, turn-off variant 2)", "nM", 468),
    ("ACAUGAGGAUCACCCAUGUAAUCAUGAUGGCUGAUGUAGAGGUAGGAUAUGAGUGGCUUUCUAUCUCAGAAGGACCAAGACUGG [Deportation 39 - Jieux - Exclusion NG 3] (Eterna round: R96, puzzle: Exclusion NG 3)", "nM", 21.6),
    ("ACAUGUCAUUGAGGAUAUUGCACACAUGAGGAUCACCCAUGUAUACGGAUGCUCUUACGUGAGUUCGAGAAGGCGAUGUACAUU [Ex NG2 #89] (Eterna round: R96, puzzle: Exclusion NG 2)", "nM", 121),
    ("GUCCUCUUGACAUGAGGAUCACCCAUGUAUUAUUUGUUAACUGAGGAUAUACUCUUAUUUUUUAUGUAGAAGGCAGAUUUGUUC [JR_ExcNG3_Sub022] (Eterna round: R96, puzzle: Exclusion NG 3)", "nM", 32.1),
]

###

Catalogue of apparent KD of MS2 coat protein readings, one per entry.
- Test system: MS2 coat protein
- experiment-description: apparent KD of MS2 coat protein; designed switch direction (-1 OFF switch, 1 ON switch): -1; higher = weaker reporter binding
- condition-description: input ligand: FMN 200 uM
reported-property: apparent KD of MS2 coat protein (nM)

# biosequence, recorded-result
records = [
    ("AGCCACAGAGGAUAUACAUACAUCCAGUAGUAGAUACUACUACAUGAGGAUCACCCAUGUAGAAGGCUGUGGCA [Omei Ex2 BD B17] (Eterna round: R97, puzzle: Exclusion 2)", 603),
    ("GUAGAGUCAGGAUAUACGGGAUCGAAAGAUCGGCGAUCCAUACAUGAGGAUCACCCAUGUAGAAGGGACUCUAC [Omei mod 10 to Eli's favorate candidate (ch.parushev)] (Eterna round: R97, puzzle: Exclusion 2)", 189),
    ("CGAUAAAAGACAGGAUAUGAGGAGAGAGAGAGAUCAGAAGGGUCACAUGAGGAUCACCCAUGUGAGUUCUCGAUAAGAAAGAGG [Prohibition 52 - Jieux - Exclusion NG 1] (Eterna round: R96, puzzle: Exclusion NG 1)", 19.3),
    ("UUUACAAGCUUUAGAUCCCACAUGAGGAUCACCCAUGUUCCUGGCCGUGAGGCUAGGUAAACUAAUGCUCGUCUUAU [JL TOV1 3.65] (Eterna round: R97, puzzle: Sensor, turn-off variant 1)", 197),
    ("CCAUGUCCAGAGGAUAUGUAGCGGAUAACCGCAACAGAAGGCUGGACAUGAGGAUCACCCAUGUGCGCCUUCCA [Vege] (Eterna round: R97, puzzle: Exclusion 6)", 313),
    ("CUAGCGAGUGUAGGAUAUCGGACUGUUUCAGUCUGAGAAGGACAUGAGGAUCACCCAUGUGAAGCUACGUGAGUAGCACGCUAG [JL ENG1 3.87] (Eterna round: R96, puzzle: Exclusion NG 1)", 74.5),
    ("CGCUGGACAGGAUAUGUUCUUGGGCACUUGAGGAUCACCCAAGUCAUCGGGACAACAGGCACAGAAGGGUUUAUGG [salish99_ex5_r4_025] (Eterna round: R97, puzzle: Exclusion 5)", 31.6),
    ("CAAACAAAGUCAGGAUAUGUCAAAUUUGUUACGACAGAAGGGACGGGACCGACACUCACAGACAUGAGGAUCACCCAUGUAAAA [Areris] (Eterna round: R96, puzzle: Exclusion NG 1)", 37.8),
    ("UAAAAGUGAGGAUAUCCAAUAUAUGACAUGAGGAUCACCCAUGUUUCCACUCGUACCUCCGGAGAAGGCACAAAAU [Ex5 #60] (Eterna round: R97, puzzle: Exclusion 5)", 25.2),
]

###

- Test system: MS2 coat protein
- experiment-description: apparent KD of MS2 coat protein; designed switch direction (-1 OFF switch, 1 ON switch): -1; higher = weaker reporter binding
- condition-description: Eterna round: R95; input ligand: microRNA oligo, concentration not stated
Here the recorded apparent KD of MS2 coat protein is given for each entry.

# biosequence, apparent KD of MS2 coat protein / nM
records = [
    ("AGUCCAUAUGUUAGGAUAUGCAACUAGCCAUUGUAGCAGAAGGAACAUGAGGAUCACCCAUGUACAAAGACCCG [Biinvees] (puzzle: Brourd's mod of Exclusion 4)", 23.6),
    ("UUUUAUUGCAAGGAUAUGCAAAUUAUUAUUAAUGCAGAAGGUGCUACAUGAGGAUCACCCAUGUUUCUGGGUUU [JR_E6_Sub043] (puzzle: Exclusion 6)", 110),
    ("AACUAGGCAGGAUAUACAUGAGGAUCACCCAUGUGCCAAUACAAAGGGACUAACAGAGGUAGAAGGGCCUAGAA [ChP 13.04.2015 #2] (puzzle: Exclusion 3)", 36.8),
    ("GGUUGACAUGAGGAUCACCCAUGUGAGGAUAUGCGAGAGAAAAAAGUGAGGAAGAGAAGCAGAAGGCGCUGUCG [salish99-ex1_r3_014] (puzzle: Exclusion 1)", 45.1),
    ("GGGCUGUCAGGAUAUACAUGAGGAUCACCCAUGUCGAGCUGUGAUAGGGCAAGAGUAGGUAGAAGGGACGAGAG [JR_Exclu3_Sub042] (puzzle: Exclusion 3)", 30.5),
    ("CUGGUCCGAGGAUAUAUUAAGUGAUACAUGAGGAUCACCCAUGUUAUUUGAUGGAUGUUAAUAGAAGGCGGACUAG [JL-ex5-3.18] (puzzle: Exclusion 5)", 35.7),
    ("CUAGAUCUUCGGAUCUAGUACAUGAGGAUCACCCAUGUUACGAGUUGAUUUUCAUACAAGCUUUUUGCUCGUCUUAU [Sensor v3 - Turn-off variant 1 - 28] (puzzle: Sensor v3, turn-off variant 1)", 84.4),
]
